- Tested on: Vero E6 infected with SARS-CoV-2
- Test: morphology score (similarity to uninfected cells); higher = more like uninfected cells
- Experimental Setup: 24 h
Measure Name: morphology score
Response field accepts a number only; no unit should be typed.

Req: Returns the measured morphology score for the input compound. Input: CCN(CC)CCCCNc1ncc2cc(-c3c(Cl)cccc3Cl)c(NC(=O)NC(C)(C)C)nc2n1 (0.833333 µM)
Resp: 0.085

* * *

// values below are reported inhibition of SARS-CoV-2 cytopathic effect
- Test system: Vero E6 infected with SARS-CoV-2
- Test: inhibition of SARS-CoV-2 cytopathic effect; higher = more antiviral protection, active = above 15
- Experimental Setup: 1 nM; 48 h
Answer format: numeric, % implied, no suffix.

                                   compound  unit_abbrev  result
0  CC[C@@H](Nc1c(Nc2cccc(C(=O)N(C)C)c2O)c(=O)c1=O)c1ccc(C)o1            %    -0.8
1  C[C@@H](Oc1ccc2[nH]nc(/C=C/c3cnn(CCO)c3)c2c1)c1c(Cl)cncc1Cl            %   -0.14
2  CC(=O)O[C@@H]1C[C@H]2C(C)(C)C(=O)C=C[C@]2(C)[C@H]2CC[C@@]3(C)[C@H](c4ccoc4)OC(=O)[C@H]4O[C@]43[C@@]21C            %   -1.35

Req: Request the reported inhibition of SARS-CoV-2 cytopathic effect associated with NNC(=O)CSc1nc2scc(-c3ccccc3)c2c(=O)n1-c1ccccc1
Resp: -1.69

Req: Item COc1ccc(C(Cl)=C(c2ccc(OC)cc2)c2ccc(OC)cc2)cc1 has what recorded inhibition of SARS-CoV-2 cytopathic effect?
Resp: -2.25

Req: Reported inhibition of SARS-CoV-2 cytopathic effect, compound CC(Cc1ccccc1)NCCC(c1ccccc1)c1ccccc1 (configuration not stated) : ____
Resp: 1.32

Req: Requested field: inhibition of SARS-CoV-2 cytopathic effect. Item: CC(C)(C)C1CCc2c(sc(NC(=O)c3ccco3)c2C(=O)O)C1 (configuration not stated)
Resp: 0.37

* * *

- Test system: Vero E6 infected with SARS-CoV-2
- Test: SARS-CoV-2 infection rate relative to infected DMSO; higher = more infection, active = 60 or less
- Experimental Setup: 24 h
Measure Name: SARS-CoV-2 infection rate (%)
The response must be a number in % with no trailing unit.

Below: 5 compounds and their reported SARS-CoV-2 infection rate.
Compound	Measured Target	Measure Name	Result
CC(C)C[C@H](NC(=O)[C@@H]1CCCN1)C(=O)NCC(N)=O [prolylleucylglycinamide] (10 µM)	Vero E6 infected with SARS-CoV-2	SARS-CoV-2 infection rate	99
C[n+]1cccc(C(=O)[O-])c1 [trigonelline] (0.833333 µM)	Vero E6 infected with SARS-CoV-2	SARS-CoV-2 infection rate	108
O=C(O[C@@H]1Cc2c(O)cc(O)cc2O[C@@H]1c1cc(O)c(O)c(O)c1)c1cc(O)c(O)c(O)c1 [epigallocatechin-gallate-(-)] (10 µM)	Vero E6 infected with SARS-CoV-2	SARS-CoV-2 infection rate	100
CC[C@H](C)[C@@H]([C@@H](CC(=O)N1CCC[C@H]1[C@H](OC)[C@@H](C)C(=O)N[C@@H](Cc1ccccc1)c1nccs1)OC)N(C)C(=O)[C@@H](NC(=O)[C@H](C(C)C)N(C)C)C(C)C [dolastatin-10] (0.833333 µM)	Vero E6 infected with SARS-CoV-2	SARS-CoV-2 infection rate	106
CC(C)(C)C(=O)CN1C(=O)[C@H](NC(=O)Nc2cccc(C(=O)O)c2)CN(C2CCCCC2)c2ccccc21 [nastorazepide] (10 µM)	Vero E6 infected with SARS-CoV-2	SARS-CoV-2 infection rate	104

Req: Quick check: SARS-CoV-2 infection rate on Vero E6 infected with SARS-CoV-2, item Cc1ccc(C(=O)C(C)CN2CCCCC2)cc1 (stereo unspecified) [tolperisone] (10 µM) ?
Resp: 83.5
